Reported values of IC50 for individual entries
target: Bone morphogenetic protein 1 (Homo sapiens, UniProt P13497); assay: Inhibitory activity against procollagen C-Proteinase (PCP).
Sequence (P13497 whole entry): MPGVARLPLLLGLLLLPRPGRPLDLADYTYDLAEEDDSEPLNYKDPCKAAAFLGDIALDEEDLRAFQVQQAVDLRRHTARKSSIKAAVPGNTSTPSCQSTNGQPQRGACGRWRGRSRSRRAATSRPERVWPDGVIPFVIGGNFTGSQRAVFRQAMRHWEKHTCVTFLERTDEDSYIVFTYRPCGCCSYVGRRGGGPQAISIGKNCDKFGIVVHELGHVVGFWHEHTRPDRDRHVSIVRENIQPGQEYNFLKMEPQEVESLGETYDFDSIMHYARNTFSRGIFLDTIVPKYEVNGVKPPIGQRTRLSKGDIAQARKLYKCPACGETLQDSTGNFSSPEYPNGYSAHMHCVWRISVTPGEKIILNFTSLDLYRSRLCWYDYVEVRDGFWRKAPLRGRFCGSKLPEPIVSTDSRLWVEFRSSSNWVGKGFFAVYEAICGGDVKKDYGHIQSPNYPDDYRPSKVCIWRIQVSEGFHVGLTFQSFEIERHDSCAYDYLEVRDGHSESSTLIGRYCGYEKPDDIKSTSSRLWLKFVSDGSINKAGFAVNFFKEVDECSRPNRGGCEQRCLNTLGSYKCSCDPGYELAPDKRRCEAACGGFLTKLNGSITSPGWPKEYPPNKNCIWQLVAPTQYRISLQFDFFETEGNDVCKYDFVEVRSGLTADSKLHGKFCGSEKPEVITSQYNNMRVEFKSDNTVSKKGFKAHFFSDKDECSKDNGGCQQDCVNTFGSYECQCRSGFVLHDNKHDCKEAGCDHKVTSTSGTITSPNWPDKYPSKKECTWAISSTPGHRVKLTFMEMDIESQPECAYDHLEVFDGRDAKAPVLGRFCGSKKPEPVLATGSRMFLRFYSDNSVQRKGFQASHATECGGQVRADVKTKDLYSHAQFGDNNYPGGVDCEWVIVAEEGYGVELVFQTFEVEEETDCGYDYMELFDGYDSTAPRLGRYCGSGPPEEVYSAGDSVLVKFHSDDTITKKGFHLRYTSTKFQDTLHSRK
Assay Readout: IC50 (nM)

# Structure Smiles String, Readout Value
measured = [
    ("COc1ccc(S(=O)(=O)N[C@H](CCCNC(=O)Nc2ccccc2)C(=O)NO)cc1", 55),
    ("COc1ccc(S(=O)(=O)N(Cc2ccc3c(c2)OCO3)[C@H](CCCNC(=O)NCc2ccccc2)C(=O)NO)cc1", 58),
    ("COc1ccc(S(=O)(=O)N(Cc2ccc3c(c2)OCO3)[C@H](CCCNC(=O)OCc2cccc([N+](=O)[O-])c2)C(=O)NO)cc1", 38),
]

* * *

target: Bone morphogenetic protein 1 (Homo sapiens); assay: Inhibitory activity against procollagen C-Proteinase (PCP).
Assay Readout: log10(IC50) (log10 of the value in µM)

# Structure Smiles String, log10(IC50)
measured = [
    ("COc1ccc(S(=O)(=O)N[C@H](CCCNC(=O)C2CCCCC2)C(=O)NO)cc1", 0.20),
    ("COc1ccc(S(=O)(=O)N[C@@H](CCCNC(=O)Nc2ccccc2)C(=O)NO)cc1", 0.84),
    ("COc1ccc(S(=O)(=O)N[C@H](CCCNC(=O)N[C@H](C)c2cccc3ccccc23)C(=O)NO)cc1", -0.80),
    ("C[C@@H](NC(=O)NCCC[C@@H](NS(=O)(=O)c1ccc(F)cc1Cl)C(=O)NO)c1ccccc1", 1.79),
    ("COc1ccc(S(=O)(=O)N[C@@H](CCCNC(=O)Nc2ccccc2Cl)C(=O)NO)cc1", 0.89),
]
